Biological target: T1, human IL-8 (human, UniProt P10145 23-99, limits assumed)
T1 construct: also called hIL-8
T1 sequence: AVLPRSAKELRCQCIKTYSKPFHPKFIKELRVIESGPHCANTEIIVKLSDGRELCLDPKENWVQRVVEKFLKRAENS
Test: SPR pH 5.8 37C
quantity.measured: pKd
Reminder that pKd means the negative base-10 logarithm of the concentration expressed in mol/L.

Solved entries (count: 3):
# binder, quantitative.readout
records = [
    ("H1050/L0395 (antibody, human IgG1, kappa, name in Kabat numbering, V domains shown) VH: QVQLVESGGGLVQPGGSLRLSCAASGFTFSEYYLSWVRQAPGKGLEWVGLIRNKDNYHTPEYSASVKGRFTISRDDSKNSLYLTMSDLKTEDTAVYYCARENHRYDVELAYWGQGTLVTVSS VL: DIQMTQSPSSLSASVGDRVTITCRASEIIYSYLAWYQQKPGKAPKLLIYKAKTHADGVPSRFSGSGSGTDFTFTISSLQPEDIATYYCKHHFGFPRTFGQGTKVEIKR", 5.11),
    ("H1000/L0442 (antibody, human IgG1, kappa, name in Kabat numbering, V domains shown) VH: QVQLVESGGGLVQPGGSLRLSCAASGFTFSEYYLSWVRQAPGKGLEWVGLIRNKDNHHTPEYSASVKGRFTISRDDSKNSLYLTMSDLKTEDTAVYYCARENHRYDVELAYWGQGTLVTVSS VL: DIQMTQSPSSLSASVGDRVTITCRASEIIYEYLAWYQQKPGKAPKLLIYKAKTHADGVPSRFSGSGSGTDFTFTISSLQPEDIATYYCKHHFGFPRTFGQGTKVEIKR", 4.15),
    ("H1023/L0395 (antibody, human IgG1, kappa, name in Kabat numbering, V domains shown) VH: QVQLVESGGGLVQPGGSLRLSCAASGFTFSDYYLSWVRQAPGKGLEWVGLIRNKDNGYHPEYSASVKGRFTISRDDSKNSLYLTMSDLKTEDTAVYYCARENHRYDVELAYWGQGTLVTVSS VL: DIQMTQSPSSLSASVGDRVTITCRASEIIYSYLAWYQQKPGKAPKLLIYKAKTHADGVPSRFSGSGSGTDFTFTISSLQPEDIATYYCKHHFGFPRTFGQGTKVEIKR", 7.04),
]

With those in mind, consider the next binder.
Returns the measured pKd for the input binder. Input: H1023/L0442 (antibody, human IgG1, kappa, name in Kabat numbering, V domains shown) VH: QVQLVESGGGLVQPGGSLRLSCAASGFTFSDYYLSWVRQAPGKGLEWVGLIRNKDNGYHPEYSASVKGRFTISRDDSKNSLYLTMSDLKTEDTAVYYCARENHRYDVELAYWGQGTLVTVSS VL: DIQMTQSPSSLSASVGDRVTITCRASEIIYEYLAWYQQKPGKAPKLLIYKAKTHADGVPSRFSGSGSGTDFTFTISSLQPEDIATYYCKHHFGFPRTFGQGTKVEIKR
5.15

Data origin, for the record: patent US20180258163A1
